- TARGET_OR_SYSTEM: HLA-B*27:05
- TEST_SUMMARY: IEDB peptide-MHC binding, purified MHC/direct/fluorescence; filed as Kd, often an IC50 or EC50 that approximates it; bounds were set here for any values at or beyond the usual limits of such assays
- SETTINGS: source organism: Influenza A virus (A/WSN/1933(H1N1))
OBSERVATION_TYPE: Kd

Entry under test: NLEPGTFDL . Its Kd was ≥ 20 µM

###

Readings of Kd for the listed sequences
- TARGET_OR_SYSTEM: HLA-B*27:03
- TEST_SUMMARY: IEDB peptide-MHC binding, purified MHC/competitive/fluorescence; filed as Kd, often an IC50 or EC50 that approximates it; bounds were set here for any values at or beyond the usual limits of such assays
- SETTINGS: source organism: Zaire ebolavirus

// solved cases for Kd follow
SWHHTSDDF; ≥ 20 µM
KTNDFAPAW; ≥ 20 µM

Entry under test: KCNPNLHYW . Its Kd was ≥ 20 µM
